# TARGET: Human immunodeficiency virus type 1 protease (Human immunodeficiency virus 1) (UniProt Q72874)
# EXPERIMENTAL DETAILS: Inhibitory activity against HIV protease at a compound concentration of 0.5 nM in MT-4 cells
# Type: cell-based
# ASSAY CONTEXT: MT4
RECORDED ENDPOINT: inhibition (%)

| MOLECULE | inhibition, % |
| --- | --- |
| Cc1cc(N)cc(C)c1OCC(=O)N[C@@H](Cc1ccccc1)C[C@H](O)[C@H](Cc1ccccc1)NC(=O)OC1COC2OCCC12 (some centres undefined) | 70 |
| COc1cccc(C)c1OCC(=O)N[C@@H](Cc1ccccc1)C[C@H](O)[C@H](Cc1ccccc1)NC(=O)O[C@H]1COC2OCCC21 (some centres undefined) | 74 |
| Cc1cc(OCCN2CCOCC2)cc(C)c1OCC(=O)N[C@@H](Cc1ccccc1)C[C@H](O)[C@H](Cc1ccccc1)NC(=O)O[C@H]1COC2OCCC21 (some centres undefined) | 77 |
| Cc1cc(Cl)c(N)c(C)c1OCC(=O)N[C@@H](Cc1ccccc1)C[C@H](O)[C@H](Cc1ccccc1)NC(=O)O[C@H]1COC2OCCC21 (some centres undefined) | 86 |
